# assay protocol: gradient 5% acetonitrile 3 min, to 50% in 2 min, to 85% in 15 min, held 3 min, 100 µL/min
# test conditions: column: Zorbax Extend-C18 2.1 x 50 mm; eluents: water / acetonitrile, 0.1% formic acid
property: RP-LC retention time (s)

Study these solved cases before continuing.
Query block: Field request: RP-LC retention time | item: Cc1c(F)cccc1NC(=O)N1CCCC(Cn2cnc3cccnc32)C1 (centres undefined)
Result block: 709

Query block: Field request: RP-LC retention time | item: O=C(Nc1cccc(Cl)c1)C1CCc2nc(N3CCOCC3)ncc2C1 (centres undefined)
Result block: 838

Query block: Field request: RP-LC retention time | item: NC(=O)C1CCN(c2oc(-c3ccco3)nc2S(=O)(=O)c2ccccc2)CC1
Result block: 652

Query block: Field request: RP-LC retention time | item: CN(CCNC(=O)C1CCCN(c2nn3c(=O)c4c(nc3s2)CCCC4)C1)Cc1ccccc1 (centres undefined)
Result block: 624

Query block: Field request: RP-LC retention time | item: O=C(NCc1ccccc1)c1cccn1Cc1noc(-c2ccccc2)n1
Result block: 981

[1] COCCN1C(=O)c2cccn2CC1CNS(=O)(=O)c1ccc2c(c1)C(C)(C)C(=O)N2 (centres undefined)
[2] O=C(Cc1cccc(F)c1)N1CCCC1c1nc(-c2ccc(F)cc2)no1 (centres undefined)
Query block: # return whichever of 1 and 2 has the smaller RP-LC retention time Write down the label of the entry you select.
Result block: 1

[A] COc1ccccc1C(CNC(=O)c1cc(=O)c2ccccc2o1)N(C)C (centres undefined)
[B] Cc1cccc(Nc2c(-c3ccc4c(c3)OCO4)nc3cnccn23)c1C
Query block: Please state the entry with greater RP-LC retention time among A and B . Write down the label of the entry you select.
Result block: B

[A] CC(O)(CNC(=O)NCc1cccs1)C1CC1 (centres undefined)
[B] COCCN(CCOC)c1nc(S(=O)(=O)c2ccc(C)cc2)c(Cl)s1
Query block: # return whichever of A and B has the smaller RP-LC retention time Write down the label of the entry you select.
Result block: A

---

# assay protocol: gradient 5% acetonitrile 3 min, to 50% in 2 min, to 85% in 15 min, held 3 min, 100 µL/min
# test conditions: column: Zorbax Extend-C18 2.1 x 50 mm; eluents: water / acetonitrile, 0.1% formic acid
property: RP-LC retention time (s)

Study these solved cases before continuing.
Query block: Field request: RP-LC retention time | item: CN(CC1CCOC1)C(=O)Nc1ccc(F)c(Cl)c1 (centres undefined)
Result block: 709

Query block: Field request: RP-LC retention time | item: COCCOCc1nc(C2CCN(S(=O)(=O)c3cccc4nsnc34)C2)no1 (centres undefined)
Result block: 769

Query block: Field request: RP-LC retention time | item: CC(C)CNC(=O)COc1cccc2ccccc12
Result block: 896

[1] CCn1cc(CN2CCC(C(=O)NCCCc3ccccc3)CC2)c2cc(OC)ccc21
[2] O=c1c2sccc2n(Cc2nc(-c3ccc(F)cc3)no2)c(=O)n1Cc1ccccc1Cl
Query block: # return whichever of 1 and 2 has the smaller RP-LC retention time Write down the label of the entry you select.
Result block: 1

[I] CCC(=O)N1CCC(COc2ccc(C(=O)NC(C)C)cc2)CC1
[II] C=CCn1c(=O)c2ccccc2n(Cc2nc(-c3cccc(OCC)c3)no2)c1=O
Query block: Please state the entry with greater RP-LC retention time among I and II . Write down the label of the entry you select.
Result block: II

[1] Cc1nc(C(=O)Nc2ccc(F)c(Cl)c2)c(C)o1
[2] O=C(NCCN1CCOCC1)c1nnc(-c2ccc(S(=O)(=O)N3CCOCC3)cc2)o1
Query block: Please state the entry with greater RP-LC retention time among 1 and 2 . Write down the label of the entry you select.
Result block: 1

All values here come from the METLIN SMRT retention time set (Domingo-Almenara et al. 2019).
